The next entries give measured pKi for hCA VII (Homo sapiens, UniProt P43166).
One number for each entry, as −log10 of the molar value.

NS(=O)(=O)c1ccc(N2CC[C@@H](NC(=O)Nc3ccc([N+](=O)[O-])cc3)C2)nc1 [19a]	7.25
NS(=O)(=O)c1ccc(N2CC[C@@H](NC(=O)Nc3ccc4c(c3)OCCO4)C2)nc1 [15a]	8.03
NS(=O)(=O)c1ccc(N2CC[C@H](NC(=O)NS(=O)(=O)c3ccccc3Cl)C2)nc1 [25b]	7.33
NS(=O)(=O)c1ccc(NC(=S)N[C@H]2CCN(c3ccc(C(F)(F)F)cn3)C2)cc1 [39b]	7.80
NS(=O)(=O)c1ccc(N2CC[C@@H](NC(=O)Nc3c(F)cc(F)cc3Br)C2)nc1 [22a]	7.39

Kindly give each listed record's pKi.
1. NS(=O)(=O)c1ccc(N2CC[C@@H](NC(=O)NS(=O)(=O)c3ccccc3)C2)nc1 [24a]
2. NS(=O)(=O)c1ccc(N2CCC(NC(=O)Nc3ccc(Cl)c(C(F)(F)F)c3)C2)nc1 (stereo in doubt) [10b]
3. NS(=O)(=O)c1cccc(NC(=S)N[C@H]2CCN(c3ccc(C(F)(F)F)cn3)C2)c1 [40b]
4. NS(=O)(=O)c1ccc(N2CC[C@H](NC(=O)Nc3ccccc3F)C2)nc1 [11b]

1: 7.10; 2: 7.81; 3: 7.85; 4: 7.94

Would you mind listing pKi for each of the following molecules?
1. NS(=O)(=O)c1ccc(NC(=O)N[C@H]2CCN(c3cccc([N+](=O)[O-])n3)C2)cc1 [43b]
2. NS(=O)(=O)c1ccc(N2CC[C@@H](NC(=O)Nc3ccc(Cl)c(Cl)c3)C2)nc1 [14a]

1: 8.06; 2: 7.58
